- ASSAY_SYSTEM: UniProt O95342
- Sequence (O95342 whole entry): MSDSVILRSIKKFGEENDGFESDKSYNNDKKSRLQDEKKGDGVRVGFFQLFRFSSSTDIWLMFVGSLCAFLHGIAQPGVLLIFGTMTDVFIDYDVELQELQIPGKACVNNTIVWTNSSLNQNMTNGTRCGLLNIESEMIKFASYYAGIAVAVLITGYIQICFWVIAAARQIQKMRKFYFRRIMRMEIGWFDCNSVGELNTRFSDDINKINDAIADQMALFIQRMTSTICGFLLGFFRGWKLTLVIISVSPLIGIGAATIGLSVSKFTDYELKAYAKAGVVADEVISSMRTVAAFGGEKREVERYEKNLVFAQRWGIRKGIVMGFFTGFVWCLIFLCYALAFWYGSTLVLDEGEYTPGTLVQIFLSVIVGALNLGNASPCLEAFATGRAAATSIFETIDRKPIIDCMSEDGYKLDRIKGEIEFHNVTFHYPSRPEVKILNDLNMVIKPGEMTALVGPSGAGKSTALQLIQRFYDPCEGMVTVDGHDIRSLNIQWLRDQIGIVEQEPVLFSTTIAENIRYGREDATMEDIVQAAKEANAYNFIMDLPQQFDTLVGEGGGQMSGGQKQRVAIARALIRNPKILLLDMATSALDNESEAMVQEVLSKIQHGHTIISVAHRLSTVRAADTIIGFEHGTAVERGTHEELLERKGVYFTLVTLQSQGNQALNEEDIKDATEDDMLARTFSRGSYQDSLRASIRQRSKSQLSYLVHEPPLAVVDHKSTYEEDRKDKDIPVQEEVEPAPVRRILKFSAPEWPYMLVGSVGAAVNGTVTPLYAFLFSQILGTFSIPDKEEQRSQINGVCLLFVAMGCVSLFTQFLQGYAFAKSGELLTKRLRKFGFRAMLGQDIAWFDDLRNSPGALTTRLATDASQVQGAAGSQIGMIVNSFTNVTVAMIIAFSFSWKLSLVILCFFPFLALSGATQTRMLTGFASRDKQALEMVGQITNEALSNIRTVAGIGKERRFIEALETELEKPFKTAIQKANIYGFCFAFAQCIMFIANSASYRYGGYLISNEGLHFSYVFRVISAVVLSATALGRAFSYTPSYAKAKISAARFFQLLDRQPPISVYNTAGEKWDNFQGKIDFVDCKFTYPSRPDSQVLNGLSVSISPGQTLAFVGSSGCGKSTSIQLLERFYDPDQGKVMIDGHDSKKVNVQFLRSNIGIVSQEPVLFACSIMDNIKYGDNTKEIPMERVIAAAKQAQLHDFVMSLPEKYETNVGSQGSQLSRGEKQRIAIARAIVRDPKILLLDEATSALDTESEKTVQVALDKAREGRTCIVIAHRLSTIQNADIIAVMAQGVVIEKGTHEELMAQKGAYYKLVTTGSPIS
- PROTOCOL_NOTES: BSEP inhibition in sandwich-cultured human hepatocytes
- Type: in vitro ADME
- MEASUREMENT_PARAMETERS: read-out: IC50, BSEP; sandwich-cultured human hepatocytes; taurocholic acid/cyclosporin; higher test concentration possible because of addition of protein to the assay media
pIC50: −log10 of the molar value.
ASSAY_ENDPOINT: pIC50

Given CC(=O)c1cc(C(=O)N[C@@H](C)Cn2ccc(-c3ccc(C#N)c(Cl)c3)n2)[nH]n1 [Keto-darolutamide, keto-darolutamide] , state its recorded pIC50.
< 3.52

====

- ASSAY_SYSTEM: CYP2D6 (Homo sapiens)
- Sequence (P10635 whole entry): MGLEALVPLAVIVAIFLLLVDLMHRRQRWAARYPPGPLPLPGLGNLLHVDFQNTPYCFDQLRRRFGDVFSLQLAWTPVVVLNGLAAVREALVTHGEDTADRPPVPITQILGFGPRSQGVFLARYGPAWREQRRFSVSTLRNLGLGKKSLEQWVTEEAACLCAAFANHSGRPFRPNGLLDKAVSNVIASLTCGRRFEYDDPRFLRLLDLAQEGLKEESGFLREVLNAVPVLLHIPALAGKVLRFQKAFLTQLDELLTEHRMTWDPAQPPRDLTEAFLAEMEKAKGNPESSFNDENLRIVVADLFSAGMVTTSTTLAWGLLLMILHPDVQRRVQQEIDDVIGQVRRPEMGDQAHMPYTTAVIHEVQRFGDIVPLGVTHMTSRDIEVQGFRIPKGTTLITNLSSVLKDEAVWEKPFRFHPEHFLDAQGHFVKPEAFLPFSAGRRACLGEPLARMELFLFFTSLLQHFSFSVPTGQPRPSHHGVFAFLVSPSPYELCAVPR
- PROTOCOL_NOTES: CYP2D6 inhibition in human liver microsomes
- Assay type: in vitro ADME
ASSAY_ENDPOINT: pIC50
API: returns pIC50 as number; meaning -log10 of concentration in mol/L.

Given CC(O)c1cc(C(=O)N[C@@H](C)Cn2ccc(-c3ccc(C#N)c(Cl)c3)n2)[nH]n1 (stereo partly shown) [Darolutamide, darolutamide] , state its recorded pIC50.
4.09
